Biological target: CYP2B6 (Homo sapiens, UniProt P20813)
Sequence (P20813 whole entry): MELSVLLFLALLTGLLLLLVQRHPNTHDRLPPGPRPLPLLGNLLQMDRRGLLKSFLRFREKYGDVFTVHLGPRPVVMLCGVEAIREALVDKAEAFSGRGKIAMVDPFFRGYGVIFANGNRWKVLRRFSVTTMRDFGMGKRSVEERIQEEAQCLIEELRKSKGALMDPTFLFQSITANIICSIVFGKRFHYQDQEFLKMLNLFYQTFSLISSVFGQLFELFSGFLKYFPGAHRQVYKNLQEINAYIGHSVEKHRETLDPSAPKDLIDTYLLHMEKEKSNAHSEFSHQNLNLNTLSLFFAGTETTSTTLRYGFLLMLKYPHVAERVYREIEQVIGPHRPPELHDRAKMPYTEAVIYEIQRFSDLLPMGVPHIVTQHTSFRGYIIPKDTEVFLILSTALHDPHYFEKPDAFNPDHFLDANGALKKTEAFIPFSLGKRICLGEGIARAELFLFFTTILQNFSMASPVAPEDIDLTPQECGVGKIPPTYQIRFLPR
Assay: Direct CYP inhibition assay in pooled HLMs, CYP2B6 (bupropion)
observable: pIC50
Reminder that pIC50 means the negative base-10 logarithm of the concentration expressed in mol/L.

Asked: Any idea what its pIC50 is? The compound is C=C(C)[C@@H]1CC=C(CO)CC1 [(−)-POH, (−)-perillyl alcohol]
Given back: 5.16

----------
Target: CYP2C9 (Homo sapiens, UniProt P11712)
Sequence (P11712 whole entry): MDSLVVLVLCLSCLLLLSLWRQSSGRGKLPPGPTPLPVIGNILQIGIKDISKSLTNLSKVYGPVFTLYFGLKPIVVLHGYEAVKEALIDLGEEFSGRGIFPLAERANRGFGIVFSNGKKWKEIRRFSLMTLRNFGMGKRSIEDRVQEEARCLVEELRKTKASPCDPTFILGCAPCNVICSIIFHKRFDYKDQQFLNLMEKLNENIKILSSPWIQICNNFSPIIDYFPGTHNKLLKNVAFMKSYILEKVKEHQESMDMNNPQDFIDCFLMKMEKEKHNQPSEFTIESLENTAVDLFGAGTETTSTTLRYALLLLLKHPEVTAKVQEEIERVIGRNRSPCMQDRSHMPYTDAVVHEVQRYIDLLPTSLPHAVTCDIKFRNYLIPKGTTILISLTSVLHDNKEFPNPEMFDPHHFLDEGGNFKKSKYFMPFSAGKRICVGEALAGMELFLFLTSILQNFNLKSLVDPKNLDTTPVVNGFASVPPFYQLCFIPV
Assay: Effect of POH on fimasartan (FMS) metabolism in pooled HLMs: CYP2C9-mediated hydroxy butyl FMS formation
Assay type: in vitro ADME
Conditions: IC50 against formation of 1-hydroxy butyl FMS, pooled HLMs; FMS 30 μM; 10 min; 95% CI in parentheses
observable: IC50 (µM)
Answer format: numeric, µM implied, no suffix.

Asked: Query (compound): C=C(C)[C@@H]1CC=C(CO)CC1 [(−)-POH, (−)-perillyl alcohol] ; field requested: IC50
Given back: 123
